Catalogue of compounds with associated growth
- Tested on: OVCAR-3 ovarian
- test: NCI-60 one-dose screen, 48 h (100 = growth as untreated, 0 = no growth, -100 = all killed)
- recorded_conditions: 10 µM
About 83,000 compounds went through this panel and 20% of them were active in at least one assay; those are over-represented in the sample as a whole. Activity calls are given as the source filed them. Rule for the calls: active = growth percent below 10; inactive = the rest.

[
  {
    "compound": "O=C1Nc2cc(Cl)ccc2/C1=C/c1ccc(OCc2ccc(Br)cc2F)cc1",
    "growth": "-82.1% (active)"
  },
  {
    "compound": "O=C(c1ccc(O)cc1)C1[C@H](c2ccc(Br)cc2)[C@@H](c2ccccc2)NC12C(=O)Nc1ccccc12 (stereo not given in full)",
    "growth": "15% (inactive)"
  },
  {
    "compound": "N#Cc1ccc(-c2nn(-c3ccc(C(=O)O)cc3)cc2CNc2cc(Cl)cc(Cl)c2)cc1",
    "growth": "45.7% (inactive)"
  },
  {
    "compound": "Cc1ccc2nc3c(nc2c1)c1cc(I)ccc1n3CCN(C)C",
    "growth": "40.8% (inactive)"
  },
  {
    "compound": "N#Cc1c(Cl)nc(SCc2ccc(F)cc2)nc1-c1ccc(F)cc1",
    "growth": "111% (inactive)"
  }
]

---

Catalogue of compounds with associated growth
- Tested on: CCRF-CEM leukemia
- test: NCI-60 one-dose screen, 48 h (100 = growth as untreated, 0 = no growth, -100 = all killed)
- recorded_conditions: 10 µM
Compounds without any hit were thinned out: in the full panel of roughly 83,000, 20% have a hit.

[
  {
    "compound": "Nc1cc(-c2cccc(C(=O)NCc3ccc4c(c3)OCO4)c2)ccn1",
    "growth / %": 98.9
  },
  {
    "compound": "C=C(C)[C@@H]1CC[C@]2(C)[C@H](CC=C3[C@@H]4CC(C)(C)CC[C@]4(C(=O)N4CCOCC4)CC[C@]32C)[C@@]1(C)CCCN",
    "growth / %": -57.2
  },
  {
    "compound": "C=C1CCC2C3(C)COC(c4cc(F)cc(F)c4)OC3CCC2(C)C1C/C=C1/C(=O)OCC1O (stereo not drawn)",
    "growth / %": 15.1
  },
  {
    "compound": "O=C(c1ccc(O)cc1)C1[C@H](c2ccc(Br)cc2)[C@@H](c2ccccc2)NC12C(=O)Nc1ccc(Br)cc12 (stereo partly drawn)",
    "growth / %": 19.7
  },
  {
    "compound": "CCOP(=O)(OCC)O[C@H]1CCC(=O)[C@@H]2[C@H]1[C@H]1C[C@@H]3[C@@]4(C)CCCC(C)(C(=O)OC)[C@@H]4CC[C@@]23C=C1C(C)C (stereo partly drawn)",
    "growth / %": 55.1
  },
  {
    "compound": "CN(C)c1ccc(/C=C/c2nc3ccccc3c(=O)n2CC(=O)Nc2ccccc2)cc1",
    "growth / %": 90
  },
  {
    "compound": "O=C(Cn1cc(CSc2nnc3oc4ccccc4n23)nn1)Nc1ccc(Br)cc1",
    "growth / %": 97.9
  },
  {
    "compound": "CCOC(=O)C1=C(N)N(c2ccc(C)cc2)C2=C(C(=O)CC(C)(C)C2)C1c1ccccc1OC (stereo not drawn)",
    "growth / %": 99
  },
  {
    "compound": "CC1(C)[C@@H](NCO)CC[C@]2(C)[C@H]3C(=O)C=C4[C@@H]5C[C@](C)(CO)CC[C@]5(C)CC[C@@]4(C)[C@]3(C)CC[C@@H]12",
    "growth / %": 70.3
  },
  {
    "compound": "C#CCNC(=O)[C@]12CCC(C)(C)C[C@H]1C1=CC[C@@H]3[C@@](C)(CCC#N)[C@H](C(=C)C)CC[C@@]3(C)[C@]1(C)CC2",
    "growth / %": 26.2
  },
  {
    "compound": "Nc1nc(Nc2ccc(Cl)cc2)n(Cc2cccc(Br)c2)n1",
    "growth / %": 4.65
  },
  {
    "compound": "C=C1CCC2C3(C)COC(c4c(F)cccc4F)OC3CCC2(C)C1CC(O)C1=CCOC1=O (stereo not drawn)",
    "growth / %": 17.7
  },
  {
    "compound": "COc1ccccc1[C@H]1C(C(=O)c2ccc(O)cc2)C2(N[C@@H]1c1ccccc1)C(=O)Nc1ccc(Br)cc12 (stereo partly drawn)",
    "growth / %": 22
  },
  {
    "compound": "S=c1nc(-c2ccccc2)cc(-c2cc3ccccc3nc2Cl)[nH]1",
    "growth / %": 43.5
  },
  {
    "compound": "CN(C(=O)c1ccc(C(F)(F)F)cc1C(F)(F)F)c1sc2c(c1C#N)CCC(=O)C2",
    "growth / %": -0.48
  },
  {
    "compound": "CCNCCCn1c2c(c3cc(OC)c(OC)cc3c1=O)C(=O)c1cc3c(nc1-2)OCO3",
    "growth / %": 0.158
  },
  {
    "compound": "CC(=O)Nc1ccc(-c2cn(-c3cccc(C(=O)Nc4cc(C(F)(F)F)cc(C(F)(F)F)c4)c3)nn2)cn1",
    "growth / %": -25.4
  },
  {
    "compound": "O=C(Cc1ccc2c(c1)CN(C1CCC(=O)NC1=O)C2=O)NCCc1ccccc1 (stereo not drawn)",
    "growth / %": 10.6
  }
]

---

- System: T-47D breast
- test: NCI-60 one-dose screen, 48 h (100 = growth as untreated, 0 = no growth, -100 = all killed)
- recorded_conditions: 10 µM
The panel holds about 83,000 compounds, 20% with a hit somewhere; the sample as a whole holds those more often.
Lab note: compare growth against 60%. Equal or greater, write 1. Smaller, write 0.

[
  {
    "compound": "Cc1ccc(CSc2nc(-c3ccc(F)cc3)c(C#N)c(=O)[nH]2)cc1",
    "class_name": 1
  },
  {
    "compound": "O=C(CSc1nnc(-c2c[nH]c3ccccc23)n1-c1ccccc1)Nc1ccc(C(=O)/C=C/c2ccc(Cl)cc2)cc1",
    "class_name": 0
  },
  {
    "compound": "COc1ccc2nc(Cl)c(-c3cc(-c4ccccc4)nc(=S)[nH]3)cc2c1",
    "class_name": 1
  },
  {
    "compound": "CCCn1c(=O)c2[nH]c(-c3ccc(OCc4nc5ccc(C(F)(F)F)cc5[nH]4)cc3)nc2n(CCC)c1=O",
    "class_name": 0
  },
  {
    "compound": "CN1CCc2c(sc3ncnc(N/N=C/c4ccc5ccccc5c4)c23)C1",
    "class_name": 1
  },
  {
    "compound": "Brc1ccc(/C=C/c2n(Cc3ccc4ccccc4c3)c3ccccc3[n+]2Cc2ccc3ccccc3c2)cc1",
    "class_name": 0
  },
  {
    "compound": "CCN1CCN(Cc2ccc(C(=O)Nc3cccc(-c4cn(-c5ccc6oc(=O)ccc6c5)nn4)c3)cc2C(F)(F)F)CC1",
    "class_name": 1
  },
  {
    "compound": "CN(C(=O)c1ccc(C(F)(F)F)cc1C(F)(F)F)c1sc2c(c1C#N)CCC(=O)C2",
    "class_name": 0
  },
  {
    "compound": "O/N=C(\\CSc1nnc(-c2c[nH]c3ccccc23)n1-c1ccccc1)c1ccc(Cl)cc1",
    "class_name": 0
  },
  {
    "compound": "CCCCCc1ccc(S(=O)(=O)N(C(C)=O)c2cc(-c3csc(N(C)C(C)=O)n3)ccc2N2CCN(C)CC2)cc1",
    "class_name": 0
  },
  {
    "compound": "CCOP(=O)(OCC)O[C@H]1CC[C@]2(C)[C@H]3CC[C@@H]4[C@@H]([C@](C)(O)CCC=C(C)C)CC[C@@]4(C)[C@]3(C)CC[C@H]2C1(C)C",
    "class_name": 0
  },
  {
    "compound": "Cc1ccc(-c2ccc(SCC(=O)Nc3ccc(S(N)(=O)=O)cc3Br)nn2)cc1",
    "class_name": 0
  },
  {
    "compound": "CN1C(=O)N(C)C2SC(N/N=C/c3cccs3)=NC21 (stereo not given)",
    "class_name": 0
  },
  {
    "compound": "COc1ccc(C(=O)Nc2ccc(-c3ccc4c(c3)NC(=O)/C4=C\\c3ccc[nH]3)cc2)cc1",
    "class_name": 0
  },
  {
    "compound": "C=C(C)[C@@H]1CC[C@]2(C)[C@H](CC=C3[C@@H]4CC(C)(C)CC[C@]4(C(=O)N4CCOCC4)CC[C@]32C)[C@@]1(C)CCCN",
    "class_name": 0
  },
  {
    "compound": "O=C(Nc1cccc([N+](=O)[O-])c1)Nc1cccc([N+](=O)[O-])c1",
    "class_name": 0
  },
  {
    "compound": "N#Cc1ccc(-c2nn(-c3ccc(C(=O)O)cc3)cc2CNc2ccc(Oc3ccccc3)cc2)cc1",
    "class_name": 0
  },
  {
    "compound": "N#Cc1ccc(-c2nn(-c3ccc(C(=O)O)cc3)cc2CNc2ccc(Cl)cc2)cc1",
    "class_name": 1
  },
  {
    "compound": "COc1ccc2[nH]c(=O)c(CSc3ccc(Nc4nccc(-c5ccc(Cl)cc5)n4)cc3)cc2c1",
    "class_name": 1
  },
  {
    "compound": "O=C(CNc1nc(-c2ccccc2)cs1)Nc1cccc([N+](=O)[O-])c1",
    "class_name": 0
  },
  {
    "compound": "Cc1ccc(-c2cc(C(=O)N=Nc3c(O)[nH]c4ccccc34)c3ccccc3n2)cc1",
    "class_name": 0
  },
  {
    "compound": "Cc1cc(=O)oc2cc(OCCCCOc3ccc(/C=C/C(=O)Nc4ccccc4[N+](=O)[O-])cc3)ccc12",
    "class_name": 1
  },
  {
    "compound": "COc1csc(/C=N/NC(=O)c2[nH]c3ccc(Br)cc3c2-c2ccccc2)c1",
    "class_name": 0
  },
  {
    "compound": "O=C(CN1CCN(c2ncnc3c2cnn3-c2ccccc2)CC1)Nc1nncs1",
    "class_name": 0
  },
  {
    "compound": "COc1ccc(C2N(c3ccc(Br)cc3)N=C(C(C)=O)N2[C@H]2[C@H](OC(C)=O)O[C@H](COC(C)=O)[C@@H](OC(C)=O)[C@@H]2OC(C)=O)cc1 (stereo not given in full)",
    "class_name": 0
  },
  {
    "compound": "CC1(C)CC[C@]2(C(=O)NCCCNCCCCNCCCN)CC[C@]3(C)C(=CC[C@@H]4[C@@]5(C)Cc6c([nH]c7ccccc67)C(C)(C)[C@@H]5CC[C@]43C)[C@H]2C1",
    "class_name": 1
  },
  {
    "compound": "N#Cc1c(-c2ccc(F)cc2)nc(SCc2ccc([N+](=O)[O-])cc2)nc1N1CCOCC1",
    "class_name": 0
  },
  {
    "compound": "CCCCCCCCCCCCCCCCCCCC(=O)NCCc1c[nH]c2ccc(OC(=O)NOCCOCCOCCOCCOCCOCCOCCOCCOCCOCCOCCOCCOCCOCCOCCOCCOCCOCCOCCOCCOCCOCCOC)cc12",
    "class_name": 0
  },
  {
    "compound": "O=C(Nc1nc2ccc([N+](=O)[O-])cc2s1)Nc1cc(Cl)ccc1I",
    "class_name": 0
  }
]
